System: Plasmodium falciparum
Test: microbe, parasite or virus in culture
Details: D6, 48 h
measurement type: IC50 (µM)
Give a bare numeral; the unit µM is implied.

[[record]]
query_smiles = "c1ccc(CNCCCNCc2ccccc2)cc1"
target_system = "Plasmodium falciparum"
uom = "µM"
value_observed = 2.35


Respond only with IC50 recorded for `COc1ccc(CNCCCCCCCCCCNCc2ccc(OC)c(O)c2)cc1O`
1.97

Quick one: give measured IC50 for `COc1cc(CNCCCCNCc2ccc(OCc3ccccc3)c(OC)c2)ccc1OCc1ccccc1`
0.33

----------
Test: Selectivity index, ratio of IC50 for African green monkey Vero cells to IC50 for chloroquine-sensitive Plasmodium falciparum D6
Format: toxicity
Conditions: read-out: Ratio IC50
selectivity ratio listing for selected compounds.

Known results for compounds:
[[record]]
query_smiles = "COc1ccc(CNCCCCNCc2ccc(OC)cc2)cc1"
measurement_type = "selectivity ratio"
value_observed = "> 3.2"

[[record]]
query_smiles = "COc1ccc(CNCCCCCCCCCCNCc2ccc(OC)cc2)cc1"
measurement_type = "selectivity ratio"
value_observed = "> 19"

[[record]]
query_smiles = "COc1cc(CNCCCCCCCCCCNCc2ccc(OCc3ccccc3)c(OC)c2)ccc1OCc1ccccc1"
measurement_type = "selectivity ratio"
value_observed = "> 6.8"

[[record]]
query_smiles = "COc1ccc(CNCCCNCc2ccc(OC)cc2)cc1"
measurement_type = "selectivity ratio"
value_observed = "> 4.8"

[[record]]
query_smiles = "COc1ccc(CNCCCCCCNCc2ccc(OC)cc2)cc1"
measurement_type = "selectivity ratio"
value_observed = 2.4


The record that follows has no selectivity ratio shown yet.
Complete the entry with selectivity ratio for `COc1cc(CNCCCCCCNCc2ccc(OCc3ccccc3)c(OC)c2)ccc1OCc1ccccc1`
> 31.7
